Data provenance is patent US20240239781A1.

# TARGET: human σ2/TMEM97 receptor (Homo sapiens, UniProt Q5BJF2)
# Sequence (Q5BJF2 whole entry): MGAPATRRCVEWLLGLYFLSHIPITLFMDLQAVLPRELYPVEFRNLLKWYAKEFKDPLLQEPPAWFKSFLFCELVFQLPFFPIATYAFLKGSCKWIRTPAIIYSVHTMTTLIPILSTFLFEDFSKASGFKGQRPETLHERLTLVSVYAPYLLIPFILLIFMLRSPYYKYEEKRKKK
# TEST NAME: Binding assay to human σ2/TMEM97 receptor ([3H]-DTG, transfected HEK-293 membranes)
# CONDITIONS: class scale, read-out: Binding σ-2 Ki
Measured Ki values are reported for all entries that follow.
OBSERVED PROPERTY: Ki

>>> print(df.to_string())
                                    compound                                    target  measured_value
 0  CCn1nc(-c2ccon2)c(C(=O)N2CC3(CCN(CCC(C)(C)C)CC3)C2)c1Cl  human σ2/TMEM97 receptor (Homo sapiens, UniProt Q5BJF2)        < 100 nM
 1  CCn1nc(-c2ccon2)c(C(=O)N2CCCC3(CN(CCC(C)(C)C)C3)C2)c1Cl  human σ2/TMEM97 receptor (Homo sapiens, UniProt Q5BJF2)        < 100 nM
 2  CCn1nc(-c2cc(C(C)C)on2)c(C(=O)N2CCCC3(CCN(CCC(C)(C)C)CC3)C2)c1Cl  human σ2/TMEM97 receptor (Homo sapiens, UniProt Q5BJF2)        < 100 nM
 3  CC(C)CCN[C@H]1CCCCN(Cc2c(-c3noc4c3COCC4)nn(C)c2Cl)C1  human σ2/TMEM97 receptor (Homo sapiens, UniProt Q5BJF2)   100 to 500 nM
 4  Cc1cc(-c2nn(C)c(Cl)c2CN2CCC3(CCN(CCC(C)(C)C)C3)C2)no1 (centres unmarked)  human σ2/TMEM97 receptor (Homo sapiens, UniProt Q5BJF2)        < 100 nM
 5  CCn1nc(-c2ccon2)c(CC(=O)N2CCCC3(CCN(CCC(C)(C)C)CC3)C2)c1Cl  human σ2/TMEM97 receptor (Homo sapiens, UniProt Q5BJF2)        < 100 nM
 6  CC(C)CCNC1CCCCN(Cc2c(-c3ccccn3)nn(C)c2Cl)C1 (centres unmarked)  human σ2/TMEM97 receptor (Homo sapiens, UniProt Q5BJF2)       > 1000 nM
 7  Cc1cc(-c2nn(C)c(Cl)c2CN2CCCCC(NCCN3CCCCC3)C2)no1 (centres unmarked)  human σ2/TMEM97 receptor (Homo sapiens, UniProt Q5BJF2)   100 to 500 nM
 8  Cc1cc(-c2nn(C)c(Cl)c2C(=O)N2CCC3(CCN(CCC(C)(C)C)CC3)CC2)no1  human σ2/TMEM97 receptor (Homo sapiens, UniProt Q5BJF2)        < 100 nM
 9  Cc1cc(-c2nn(C)c(Cl)c2C(=O)N2CCC3(CCC(NCCC(C)C)CC3)CC2)no1  human σ2/TMEM97 receptor (Homo sapiens, UniProt Q5BJF2)   100 to 500 nM
10  CCCNCC1CCN(Cc2c(-c3cc(C)on3)nn(C)c2Cl)C1 (centres unmarked)  human σ2/TMEM97 receptor (Homo sapiens, UniProt Q5BJF2)       > 1000 nM
11  Cn1cc(-c2nn(C)c(Cl)c2C(=O)N2CCCC3(CCN(CCC(C)(C)C)CC3)C2)cn1  human σ2/TMEM97 receptor (Homo sapiens, UniProt Q5BJF2)        < 100 nM
12  Cc1onc(-c2nn(C)c(Cl)c2CN2CCCCC(NCCC(C)C)C2)c1C (centres unmarked)  human σ2/TMEM97 receptor (Homo sapiens, UniProt Q5BJF2)   100 to 500 nM
13  CCn1nc(-c2cc(C)on2)c(CN2CCCCC(NCCC(C)(C)C)C2)c1Cl (centres unmarked)  human σ2/TMEM97 receptor (Homo sapiens, UniProt Q5BJF2)   100 to 500 nM
14  CCn1nc(-c2ccon2)c(C(=O)NC2CCC3(CC2)CCN(CCC(C)(C)C)CC3)c1Cl  human σ2/TMEM97 receptor (Homo sapiens, UniProt Q5BJF2)        < 100 nM
15  Cc1cc(-c2nn(C)c(Cl)c2CC(=O)N2CCCC3(CCN(CCC(C)(C)C)CC3)C2)no1  human σ2/TMEM97 receptor (Homo sapiens, UniProt Q5BJF2)        < 100 nM
16  Cc1cc(-c2nn(C)c(Cl)c2CN2CCCCC(NCCC(C)C)C2)no1 (centres unmarked)  human σ2/TMEM97 receptor (Homo sapiens, UniProt Q5BJF2)       > 1000 nM
17  Cc1cc(-c2nn(C)c(Cl)c2CN2CC[C@@H](CNCCC(C)(C)C)C2)no1  human σ2/TMEM97 receptor (Homo sapiens, UniProt Q5BJF2)        < 100 nM
18  CCn1nc(-c2ccon2)c(CC(=O)NCC2CCCN(CCC(C)(C)C)C2)c1Cl (centres unmarked)  human σ2/TMEM97 receptor (Homo sapiens, UniProt Q5BJF2)   100 to 500 nM
19  CC(C)CCNC1CCCCN(Cc2c(-c3cccnc3)nn(C)c2Cl)C1 (centres unmarked)  human σ2/TMEM97 receptor (Homo sapiens, UniProt Q5BJF2)       > 1000 nM
20  Cc1cc(-c2nn(C)c(Cl)c2CN2CCCCC(CNCCC(C)C)C2)no1 (centres unmarked)  human σ2/TMEM97 receptor (Homo sapiens, UniProt Q5BJF2)   100 to 500 nM
21  Cc1cc(-c2nn(C)c(Cl)c2C(=O)N2CCC3(CN(CCC(C)(C)C)C3)C2)no1  human σ2/TMEM97 receptor (Homo sapiens, UniProt Q5BJF2)   100 to 500 nM
22  Cc1cc(-c2nn(C)c(Cl)c2CN2CCC3(C2)CN(Cc2ccccc2)C3)no1  human σ2/TMEM97 receptor (Homo sapiens, UniProt Q5BJF2)   100 to 500 nM
